target_of_assay: ubiquitin-activating enzyme E1 (UBA1) (Homo sapiens)
Construct: recombinant human UBA1, GST tag removed by thrombin
Sequence (P22314 2-1058): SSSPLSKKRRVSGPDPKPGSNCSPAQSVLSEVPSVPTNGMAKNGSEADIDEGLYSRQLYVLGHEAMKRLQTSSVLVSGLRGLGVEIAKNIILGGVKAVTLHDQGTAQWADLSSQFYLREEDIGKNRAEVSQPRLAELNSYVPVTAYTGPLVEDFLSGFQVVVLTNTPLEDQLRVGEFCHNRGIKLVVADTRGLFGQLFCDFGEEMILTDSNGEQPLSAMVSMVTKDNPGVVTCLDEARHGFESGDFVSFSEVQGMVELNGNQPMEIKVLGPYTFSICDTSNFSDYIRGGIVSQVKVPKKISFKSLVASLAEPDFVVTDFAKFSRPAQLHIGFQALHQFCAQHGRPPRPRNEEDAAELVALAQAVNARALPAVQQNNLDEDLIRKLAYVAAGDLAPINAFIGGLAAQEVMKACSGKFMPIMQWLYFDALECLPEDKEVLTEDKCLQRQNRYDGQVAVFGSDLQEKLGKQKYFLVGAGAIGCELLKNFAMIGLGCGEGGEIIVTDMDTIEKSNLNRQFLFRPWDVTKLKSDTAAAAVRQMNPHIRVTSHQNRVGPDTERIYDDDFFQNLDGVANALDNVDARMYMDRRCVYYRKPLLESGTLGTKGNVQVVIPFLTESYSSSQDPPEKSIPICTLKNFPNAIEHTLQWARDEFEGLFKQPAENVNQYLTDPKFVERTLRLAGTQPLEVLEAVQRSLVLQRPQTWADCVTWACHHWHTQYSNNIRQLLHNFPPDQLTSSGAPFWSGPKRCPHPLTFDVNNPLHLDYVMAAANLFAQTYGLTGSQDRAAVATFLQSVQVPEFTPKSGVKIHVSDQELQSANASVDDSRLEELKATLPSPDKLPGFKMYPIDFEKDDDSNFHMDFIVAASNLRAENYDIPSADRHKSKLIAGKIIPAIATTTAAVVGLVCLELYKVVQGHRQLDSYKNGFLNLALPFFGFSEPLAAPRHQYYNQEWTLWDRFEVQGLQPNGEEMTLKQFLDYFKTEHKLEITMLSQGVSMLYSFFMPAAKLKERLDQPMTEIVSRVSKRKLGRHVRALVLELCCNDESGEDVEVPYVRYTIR
assay_explanation: thioester gel assay; PPi:ATP and AMP:ATP exchange assays
Format: biochemical
pIC50: −log10 of the molar value.
value_type: pIC50

INSERT INTO assay_data (structure_notation, target_of_assay, measurement) VALUES
  ('CCCCCCCC(=O)CCC/C=C/[C@@H]1CC(=O)NCc2nc(cs2)C2=N[C@@](C)(CS2)C(=O)N[C@@H](C(C)C)C(=O)O1', 'ubiquitin-activating enzyme E1 (UBA1) (Homo sapiens)', '~4.52');

Numbers sourced from paper PMC3261141.
